system: NCI-H226; assay: NCI tumour cell line growth inhibition, 48 h
The source made the active and inactive calls. No stated cut-off is given here; in the data, active = GI50 up to about 1.1 µM and inactive = higher.
API: response.call in Yes for active, No for inactive

Illustrative cases are given below, each with its answer.
Kindly provide the recorded test outcome for the following compound: `O=C(O)CN1C(=O)CN=C(c2ccccn2)c2cc(Cl)ccc21` No

Kindly provide the recorded test outcome for the following compound: `O=C(Cc1csc(N/N=C2\C(=O)Nc3ccccc32)n1)Nc1ccccc1` No

Kindly provide the recorded test outcome for the following compound: `COc1ccc2[nH]c3c(c2c1)COc1ccccc1C3=O` No

Further cases:
Kindly provide the recorded test outcome for the following compound: COc1ccc(-c2cc(-c3ccccc3)c(C#N)c(=O)n2C2OC(CO)C(O)C(O)C2O)cc1 (stereo not given) No

Kindly provide the recorded test outcome for the following compound: `Cc1ccc2c(c1)-c1nc(N)c(C#N)c(-c3ccccc3)c1CCS2(=O)=O` No

Kindly provide the recorded test outcome for the following compound: CC(=O)NC(CCCNCc1ccccc1)C(=O)NCc1ccccc1 (stereo not given) No

Kindly provide the recorded test outcome for the following compound: `O=C1CC(=O)N(c2ccccc2)N1/C(=C/c1ccccc1)c1ccccc1` No

Kindly provide the recorded test outcome for the following compound: COC1CCCc2c(OC(C)=O)ccc(OC(C)=O)c21 (stereo not given) No

Kindly provide the recorded test outcome for the following compound: `COc1cc(C)cc2c(-c3c(O)cc(O)c4c3C[C@H](C)N[C@H]4C)cc(-c3cc(-c4c(O)cc(O)c5c4C[C@H](C)N[C@H]5C)c4cc(C)cc(OC)c4c3O)c(O)c12` No

Kindly provide the recorded test outcome for the following compound: O=C1C2C3C=CC(C2C(=O)N1COP(=O)(O)O)C1C2C(=O)N(COP(=O)(O)O)C(=O)C2C31 (stereo not given) No

---

tested on: SNB-19; assay: NCI tumour cell line growth inhibition, 48 h
The source made the active and inactive calls. Rule as the data show it: active = GI50 up to about 1.1 µM and inactive = higher.
API: response.call in active, inactive

Illustrative cases are given below, each with its answer.
Kindly provide the recorded test outcome for the following compound: `O=C1/C(=C\c2ccc(Cl)cc2Cl)Sc2scc(-c3ccc(O)c(O)c3)[n+]21` inactive

Kindly provide the recorded test outcome for the following compound: Cc1cc(S(=O)(=O)NC2=Nc3ccccc3C(c3ccccc3)N2)c(S)cc1Cl (stereo not given) inactive

Kindly provide the recorded test outcome for the following compound: O=c1[nH]cnc2c1nnn2C1C=C(CO)C(O)C1O (stereo not given) inactive

Now look at this entry.
Kindly provide the recorded test outcome for the following compound: CC(=O)/N=S(/NC(=O)c1ccc(C)cc1)C(Cl)(Cl)Cl (stereo not given) inactive

---

test system: SW-620; test: NCI tumour cell line growth inhibition, 48 h
Calls of active or inactive are those of the source. Cut-off read from the data, not from the text of the source: active = GI50 up to about 1.1 µM and inactive = higher.
# reported GI50; entries follow

Sample answers from the record:
Provide one value: measured GI50 of `O=C(/C=C/c1ccccc1)Nc1ccccc1SCCCCl` 6.46 µM (inactive)

Provide one value: measured GI50 of `CC(=O)/C=C/c1c[nH]c(=O)[nH]c1=O` 223 µM (inactive)

Provide one value: measured GI50 of `O=C1O/C(=C\c2ccccc2)N(c2ccccc2)C1=O` > 100 µM (inactive)

Further cases:
Provide one value: measured GI50 of COc1cc2c(cc1OC)C1[C@@H](c3ccccc3)OCN1CC2 (stereo partly specified) 56.8 µM (inactive)

Provide one value: measured GI50 of `O=S(=O)(O)c1cc(/N=N/c2cccc3ccccc23)c(O)c2ncccc12` 59.8 µM (inactive)

Provide one value: measured GI50 of `Cn1c(-c2cccs2)cc(-c2cccs2)c1-c1ccsc1` > 100 µM (inactive)
